- STUDY_TARGET: T1, mouse DLL4 extracellular domain (mouse, UniProt Q9JI71 27-532)
- T1 construct: extracellular domain; also called muDLL4 ECD; murine DLL4
- T1 sequence (Q9JI71 27-532): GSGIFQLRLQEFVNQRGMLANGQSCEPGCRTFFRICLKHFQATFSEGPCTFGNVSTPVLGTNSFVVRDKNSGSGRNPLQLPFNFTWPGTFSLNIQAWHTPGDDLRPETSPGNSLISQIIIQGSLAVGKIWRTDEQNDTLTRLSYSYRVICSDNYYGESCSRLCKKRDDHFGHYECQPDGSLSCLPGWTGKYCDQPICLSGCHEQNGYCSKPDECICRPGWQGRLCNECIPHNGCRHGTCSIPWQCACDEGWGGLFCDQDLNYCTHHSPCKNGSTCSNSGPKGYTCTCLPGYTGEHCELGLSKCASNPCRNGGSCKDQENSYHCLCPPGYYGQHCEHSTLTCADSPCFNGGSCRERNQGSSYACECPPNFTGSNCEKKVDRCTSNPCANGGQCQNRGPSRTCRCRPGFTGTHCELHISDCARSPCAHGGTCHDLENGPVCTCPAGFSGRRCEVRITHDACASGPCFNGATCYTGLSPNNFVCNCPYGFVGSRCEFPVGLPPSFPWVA
- EXPERIMENTAL_PROTOCOL: SPR (Biacore)
pKd: −log10 of the molar value.

BINDER	pKd
h1A11.3 (antibody, V domains shown, humanized IgG; also called VH.1/VL.1b 1A11) VH: EVQLVESGGGLVQPGGSLRLSCAASGFTFSNFPMAWVRQAPGKGLEWVATISSSDGTTYYRDSVKGRFTISRDNAKNSLYLQMNSLRAEDTAVYYCARGYYNSPFAYWGQGTLVTVSS VL: DIQMTQSPSSLSASVGDRVTITCRASEDIYSNLAWYQQKPGKAPKLLIFDTNNLADGVPSRFSGSGSGTDFTLTISSLQPEDFATYYCQQYNNYPPTFGQGTKLEIKR	7.43
h1A11.12 (antibody, V domains shown, humanized IgG; also called VH.1b/VL.2a 1A11) VH: EVQLVESGGGLVQPGGSLRLSCAASGFTFSNFPMAWVRQAPGKGLEWVATISSSDGTTYYRDSVKGRFTISRDNAKNSLYLQMNSLRAEDTAVYYCSRGYYNSPFAYWGQGTLVTVSS VL: EIVMTQSPATLSVSPGERATLSCRASEDIYSNLAWYQQKPGQSPRLLIFDTNNLADGVPARFSGSGSGTESTLTISSLQSEDFAVYFCQQYNNYPPTFGQGTKLEIKR	7.46
